System: E28 (patient-derived glioblastoma stem cells of classical subtype);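 also: nuclei counted by high-content imaging of Hoechst-stained cells in laminin-coated 384-well plates, relative to 0.1% DMSO vehicle wells, with staurosporine as cell-death control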
ASSAY INFO: surviving fraction (nuclei count normalised to DMSO); higher = more cells surviving (less toxic)
RUN CONDITIONS: 37 nM; exposure time: 72 h
Counter-ions that a name gives are not always drawn.
surviving fraction: recorded values
OBSERVATION TYPE: surviving fraction

1) Clc1ccc(C(Cn2ccnc2)OCc2ccsc2Cl)c(Cl)c1 (stereo not drawn) ... 1.05
2) COc1cccc2c(NCc3ccccc3)nc(-n3c(N)nc4ccccc43)nc12 ... 1.01
3) N=C(NCCCCCCNC(=N)NC(=N)Nc1ccc(Cl)cc1)NC(=N)Nc1ccc(Cl)cc1 ... 1.1
4) COc1cc2c(cc1-c1c(C)noc1C)ncc1[nH]c(=O)n([C@H](C)c3ccccn3)c12 ... 1.14
5) COc1cc2c(c(OC)c1OC)-c1ccc(OC)c(=O)cc1[C@@H](NC(C)=O)CC2 ... 0.335
6) C[C@]12CC[C@H](O)C[C@H]1CC[C@@H]1[C@@H]2C[C@@H](O)[C@]2(C)[C@@H](C3=CC(=O)OC3)CC[C@]12O ... 0.883
7) CC(C)C[C@H](NC(=O)CNC(=O)c1cc(Cl)ccc1Cl)B1OC(=O)C(CC(=O)O)(CC(=O)O)O1 ... 0.158
8) Nc1ccn([C@@H]2O[C@H](CO)[C@@H](O)C2(F)F)c(=O)n1 [Gemcitabine HCl] ... 0.376
